Sourced from patent US20250163164A1

Molecular target: T1, human interleukin 13 receptor subunit alpha 2 (IL-13RA2) (human, UniProt Q14627 27-380)
T1 construct: whole, on cells; also called IL-13Rα2; CD213A2
T1 sequence (looked up): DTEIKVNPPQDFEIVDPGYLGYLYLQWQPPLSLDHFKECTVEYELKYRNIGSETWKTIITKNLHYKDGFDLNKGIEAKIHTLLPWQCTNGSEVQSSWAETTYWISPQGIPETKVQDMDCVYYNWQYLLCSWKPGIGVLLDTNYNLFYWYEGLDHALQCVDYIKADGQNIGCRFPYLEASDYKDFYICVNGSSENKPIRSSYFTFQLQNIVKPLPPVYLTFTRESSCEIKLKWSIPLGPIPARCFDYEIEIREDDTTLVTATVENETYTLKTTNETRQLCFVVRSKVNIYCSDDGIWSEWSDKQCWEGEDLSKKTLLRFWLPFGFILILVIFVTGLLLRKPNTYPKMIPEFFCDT
Assay: FACS on A375 cells
OBSERVABLE: Top (MFI)
// units = MFI; emit number, no label

// 72B4H4 H4L3 hIgG1 (antibody, V domains shown, humanized, hIgG1) VH: QVQLVQSGAEVVKPGASVKLSCKASGYTFTNYWMNWVKQRPGQGLEWIGRIDAYAGETHYNQKFKDRAILTVDKSTSTAYMELRSLRSEDTAVYYCARGYGDAYGMDHWGQGTLVTVSS VL: DIQLTQSPSSLSASVGDRVTITCRASESVDNYGISFMNWFQQKPGKAPKLLIYAASRQGSGDPARFSGSGSGTDFTLTISSLQPEDFATYFCQQSKEVPWTFGGGTKVEIK : Top (MFI) value = 8470

// 57F8H3F1 H4L3 hIgG1 (antibody, V domains shown, humanized, hIgG1) VH: QVQLVQSGAEVVKPGASVKLSCKASGYTFTNYWMNWVKQRPGQGLEWIGRIDAYETETHYNQKFRDRAILTVDKSTSTAYMELRSLRSEDTAVYYCARGYGHYYGVDYWGQGTLVTVSS VL: DIQLTQSPSSLSASVGDRVTITCRASENVGNFGISFVNWFQQKPGKAPKLLIYAASNLGSGDPARFSGSGSGTDFTLTISSLQPEDFATYFCQQSKGVPWTFGGGTKVEIK : Top (MFI) value = 7180

// 61H8C1 H2L4 hIgG1 (antibody, V domains shown, humanized, hIgG1) VH: QVQLVQSGAEVAKPGASVKVSCKASGYTFTSYWTQWIRQAPGQGLEGMGAIYPGDDDTSYNQKFKGRVTMTADTSTSTVYMELSSLRSEDTAVYYCARGATLLRPFPYWGQGTLVTVSS VL: DIVMTQSPSSLSTSVGDRVTITCKASQDVSTAVAWYQQKPGKSPKLLIYSASYRYTGVPDRFTGSGSGTDFTFTISSVQPEDFATYSCQQHYSIPPTFGGGTKLEIK : Top (MFI) value = 21900

// 72B4H4 H3L2 hIgG1 (antibody, V domains shown, humanized, hIgG1) VH: QVQLVQSGAEVVKPGASVKLSCKASGYTFTNYWMNWVKQAPGQGLEWIGRIDAYAGETHYNQKFKDRATLTVDKSTSTVYMELSSLRSEDTAVYYCARGYGDAYGMDHWGQGTLVTVSS VL: DIQMTQSPSSLSASVGDRVTITCRASESVDNYGISFMNWFQQKPGKAPKLLIYAASRQGSGDPSRFSGSGSGTDFTLTISSLQPEDFATYFCQQSKEVPWTFGQGTKVEIK : Top (MFI) value = 8550

// 57F8H3F1 H1L1 hIgG1 (antibody, V domains shown, humanized, hIgG1) VH: QVQLVQSGAEVKKPGASVKVSCKASGYTFTNYWMNWVRQAPGQGLEWMGRIDAYETETHYNQKFRDRVTMTRDTSTSTVYMELSSLRSEDTAVYYCARGYGHYYGVDYWGQGTLVTVSS VL: DIQMTQSPSSLSASVGDRVTITCRASENVGNFGISFVNWYQQKPGKAPKLLIYAASNLGSGVPSRFSGSGSGTDFTLTISSLQPEDFATYYCQQSKGVPWTFGQGTKVEIK : Top (MFI) value = 7020

// 61H8C1 H4L3 hIgG1 (antibody, V domains shown, humanized, hIgG1) VH: QVQLVQSGAEVAKPGASVKLSCKASGYTFTSYWTQWIKQAPGQGLEGIGAIYPGDDDTSYNQKFKGKATLTADKSTSTAYMQLSSLRSEDTAVYYCARGATLLRPFPYWGQGTLVTVSS VL: DIQMTQSPSSLSTSVGDRVTITCKASQDVSTAVAWYQQKPGKSPKLLIYSASYRYTGVPDRFSGSGSGTDFTFTISSLQPEDFATYSCQQHYSIPPTFGGGTKLEIK : Top (MFI) value = 20800

// 57F8H3F1 H4L4 hIgG1 (antibody, V domains shown, humanized, hIgG1) VH: QVQLVQSGAEVVKPGASVKLSCKASGYTFTNYWMNWVKQRPGQGLEWIGRIDAYETETHYNQKFRDRAILTVDKSTSTAYMELRSLRSEDTAVYYCARGYGHYYGVDYWGQGTLVTVSS VL: DIVLTQSPSSLSASVGDRATITCRASENVGNFGISFVNWFQQKPGKPPKLLIYAASNLGSGDPARFSGSGSGTDFTLTISSLQPEDFATYFCQQSKGVPWTFGGGTKLEIK : Top (MFI) value = 7270
